System: third instar larvae from wild Aedes albopictus
assay_comment: direct-contact mortality bioassay
stated_conditions: Aedes albopictus, 24 h, read-out: LC50, mg/L (95% CL)
Exam item: assign YES to entries whose LC50 is below 50 mg/L and NO to entries at or above 50 mg/L. Note that a value of exactly 50 mg/L receives NO.

hey, is LC50 for O=c1c2c(oc3c1ccc1occc13)COc1ccccc1-2 [Pongarotene (6), pongarotene] lower than 50 mg/L or not?
NO

New cases:
Does the reported LC50 of CC/C=C\C/C=C\C/C=C\CCCCCCCC(=O)O [Linolenic acid, linolenic acid] stay below 50 mg/L?
NO

Please indicate whether the reported LC50 of CCCCCCCCCCCCCCCC(=O)O [Palmitic acid (4), palmitic acid] is strictly below 50 mg/L.
NO

Answer whether the molecule CCCCCCCC/C=C\CCCCCCCC(=O)OCC [Ethyl oleate, ethyl oleate] has LC50 strictly less than 50 mg/L
NO

In plain terms, does COc1c(-c2ccccc2)oc2c3c(ccc2c1=O)OC(C)(C)C=C3 [Karanjachromene (2), karanjachromene] come in under 50 mg/L for LC50?
NO

Here's an entry: CCCCCCCC/C=C/CCCCCCCC(=O)O [Elaidic acid, elaidic acid] . Is its LC50 below 50 mg/L?
NO

Field: below-cutoff. Rule: recorded LC50 strictly less than 50 mg/L. Subject: CCCCC/C=C\C/C=C\CCCCCCCC(=O)OC [Methyl linoleate, methyl linoleate]
NO

For CCCCC/C=C\C/C=C\CCCCCCCC(=O)OCC [Ethyl linoleate, ethyl linoleate] , is the recorded LC50 below the cut-off of 50 mg/L?
NO

Is LC50 strictly under 50 mg/L for the entry CCCCCCCC/C=C\CCCCCCCC(=O)OC [Methyl oleate, methyl oleate] ?
NO

Dear colleague, could you confirm whether LC50 of COc1c(-c2ccccc2)oc2c(ccc3occc32)c1=O [Karanjin (1), karanjin] falls below 50 mg/L? Thanks.
YES

Here's an entry: COP(=S)(OC)Oc1ccc(SC)c(C)c1 [Fenthion, fenthion, reference compound] . Is its LC50 below 50 mg/L?
YES

Does the reported LC50 of the following molecule sit strictly below 50 mg/L? CCCCCCCC/C=C\CCCCCCCC(=O)O [Oleic acid (3), oleic acid]
YES

Check if LC50 falls below 50 mg/L for CCCCCCCCCCCCCCCCCC(=O)O [Stearic acid, stearic acid] .
NO

Does this molecule meet the criterion LC50 < 50 mg/L? CCCCC/C=C\C/C=C\CCCCCCCC(=O)O [Linoleic acid, linoleic acid]
NO

Consider the molecule CCCCCCCCCCCCCCCCCCCCCC(=O)O [Behenic acid, behenic acid] . Is its LC50 strictly less than 50 mg/L?
NO

Quick check: LC50 of COP(=S)(OC)Oc1ccc(Sc2ccc(OP(=S)(OC)OC)cc2)cc1 [Temephos, temephos, reference compound] under 50 mg/L?
YES
